# pIC50 per entry
Biological target: PDE1A3 (Homo sapiens)
Assay: In vitro HTRF PDE1 inhibition assay (PDE1A3)
Type: biochemical
Conditions: Table 23
pIC50: −log10 of the molar value.

These solved cases illustrate the format of a correct answer.
{"molecule": "O=c1c2cnc(C3CCOCC3)n2nc2n1CCCN2Cc1ccccc1 [Example 59]", "target.or.system": "PDE1A3 (Homo sapiens)", "pIC50": "> 6.00"}
{"molecule": "CC(C)c1ncc2c(=O)n3c(nn12)N(CCCc1ccccn1)CC3 [Example 11]", "target.or.system": "PDE1A3 (Homo sapiens)", "pIC50": "> 6.00"}
{"molecule": "CC(C)CN1CCCn2c1nn1c(C(C)C)ncc1c2=O [Example 16]", "target.or.system": "PDE1A3 (Homo sapiens)", "pIC50": "> 6.00"}
{"molecule": "CC(C)c1ncc2c(=O)n3c(nn12)N(CC1CCOCC1)CC3 [Example 1]", "target.or.system": "PDE1A3 (Homo sapiens)", "pIC50": "> 6.00"}

Moving on to another molecule below.
Inquiry: // returns reported pIC50 for input CC(C)n1ncc2c(=O)n3c(nc21)N(CC1CCOCC1)CCC3 [Example 78]
Reply text: > 6.00

---

Target: PDE1A3 (Homo sapiens)
Assay: In vitro HTRF PDE1 inhibition assay (PDE1A3)
Assay type: biochemical
Conditions: Table 26
pIC50: −log10 of the molar value.
measurement.label: pIC50

{"molecule.smiles": "O=c1c2cnc(C3CCOCC3)n2nc2n1CCN2Cc1ccccc1F", "pIC50": "> 6.00"}

Inquiry: // returns reported pIC50 for input CO[C@H]1CC[C@H](CN2CCCn3c2nn2c(C4CCOCC4)ncc2c3=O)CC1
Reply text: > 6.00

Inquiry: And the next one, O=c1c2cnc(C3CCOCC3)n2nc2n1CCCN2CC1CCC(F)(F)CC1 ?
Reply text: > 6.00

Inquiry: And the next one, O=c1c2cnc(C3CCOCC3)n2nc2n1CCCN2CC1(C(F)(F)F)CC1 ?
Reply text: > 6.00

Inquiry: And the next one, O=c1c2cnc(C3CCOCC3)n2nc2n1CCN2CC1CCC(F)(F)CC1 ?
Reply text: > 6.00

---

Target: PDE1B (Homo sapiens)
Test: In vitro HTRF PDE1 inhibition assay (PDE1B)
Assay type: biochemical
Settings: Table 22
pIC50: −log10 of the molar value.
measurement.label: pIC50

Inquiry: // returns reported pIC50 for input CC1CN(CCCc2ccccn2)c2nn3c(C(C)C)ncc3c(=O)n2C1 (stereo not drawn) [Example 121]
Reply text: > 6.00

Inquiry: And the next one, COCCCCCN1CCn2c1nn1c(C(C)C)ncc1c2=O [Example 8] ?
Reply text: > 6.00

---

Target: UniProtKB Q01064
Assay: In vitro HTRF PDE1 inhibition assay (PDE1B)
Assay type: biochemical
Details: Table 22
pIC50: −log10 of the molar value.
# pIC50 per entry

These solved cases illustrate the format of a correct answer.
{"compound": "CC(C)c1ncc2c(=O)n3c(nn12)N(CCN1CCOCC1)CCC3", "pIC50": "> 6.00"}
{"compound": "COc1ccc(C2Cn3c(nn4c(C5CCOCC5)ncc4c3=O)N2C)cc1 (stereo not shown) [Example 86]", "pIC50": "> 6.00"}
{"compound": "CCc1ccc([C@@H]2Cn3c(nn4c(C5CCOCC5)ncc4c3=O)N2CC(C)C)cn1", "pIC50": "4.00 to 5.00"}
{"compound": "CC(C)c1ncc2c(=O)n3c(nn12)N(CCc1cccnc1)CCC3", "pIC50": "> 6.00"}
{"compound": "N#Cc1cccc(CCN2CCCn3c2nn2c(C4CCOCC4)ncc2c3=O)c1", "pIC50": "4.00 to 5.00"}

Inquiry: // returns reported pIC50 for input CC(C)c1ncc2c(=O)n3c(nn12)N(Cc1ccc(C#N)cc1)CCC3
Reply text: > 6.00

Inquiry: And the next one, CC1CN(Cc2ccc(C#N)cc2)c2nn3c(C(C)C)ncc3c(=O)n2C1 (stereo not shown) ?
Reply text: > 6.00

Inquiry: And the next one, CC(C)n1ncc2c(=O)n3c(nc21)N(Cc1ccc(-c2cccc(F)n2)cc1)CC3 ?
Reply text: > 6.00

Inquiry: And the next one, O=c1c2cnc(C3CCOCC3)n2nc2n1CCCN2CCc1ccccc1 ?
Reply text: > 6.00

Inquiry: And the next one, CC(C)CN1CCCn2c1nn1c(C(C)C)ncc1c2=O ?
Reply text: > 6.00

Inquiry: And the next one, CC(C)c1ncc2c(=O)n3c(nn12)N(C)[C@H](c1ccc(Cl)cn1)C3 ?
Reply text: > 6.00

Inquiry: And the next one, N#Cc1cccc(CN2CCCn3c2nn2c(C4CCOCC4)ncc2c3=O)c1 ?
Reply text: > 6.00

Inquiry: And the next one, CC(C)n1ncc2c(=O)n3c(nc21)N(Cc1ccc(C#N)cc1)CCC3 ?
Reply text: > 6.00
